# credit: paper PMC3119721

# systemName: PduO-type ATP-dependent cob(I)alamin adenosyltransferase (ATR) (Methylorubrum extorquens, UniProt C5AZG1, DEL180-190)
# assayInfo: isothermal titration calorimetry
resultType: Kd
Dear colleague, please send the value followed by its unit.

input: Consider the compound shown here: Nc1ncnc2c1ncn2[C@@H]1O[C@H](COP(=O)(O)OP(=O)(O)OP(=O)(O)O)[C@@H](O)[C@H]1O [ATP] What is its recorded Kd?
output: 0.48 µM
